Listed compounds paired with reported activation (% of control)
Test: activation of NF-kB-driven transcription – cell-based, counter-screen for STAT3 activator project (AID 1309);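 note: reporter induced by TNF-alpha stimulation; 100% = median of stimulated DMSO wells and 0% = no signal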
Details: human cells, NF-kappaB reporter activation; at 5.7 µM; stronger effect = higher value
Screen size: about 1,200 compounds; about 130 (11%) were called active. The list is a sample of the results.
PARAMETER: activation (% of control) (%)

>>> df
                                    compound                  parameter  quantity_unit  measured_result
 0  N#Cc1c(C(F)(F)F)cc(-c2ccc(Cl)cc2)nc1SCC(=O)O  activation (% of control)              %              107
 1  Cc1ccc(/C=N/NC(=O)COc2ccccc2-c2ccccc2)cc1  activation (% of control)              %              155
 2                          Cc1nc2ccccc2cc1O  activation (% of control)              %               98
 3            CCOC(=O)CN(C)Cc1c[nH]c2ccccc12  activation (% of control)              %              105
 4  Cc1cccc(C(=O)Nc2nnc(Cc3c[nH]c4ccccc34)s2)c1  activation (% of control)              %              101
 5  CN1CCN(c2ccc([N+](=O)[O-])c(Sc3nc4ccccc4[nH]3)c2)CC1  activation (% of control)              %              102
 6  Fc1ccc2nc(-c3ccccc3)nc(SCc3nnc(-c4ccccc4)o3)c2c1  activation (% of control)              %              106
 7  COc1ccc([N+](=O)[O-])cc1C1NN=C(c2cccc3ccccc23)S1 (configuration not stated)  activation (% of control)              %              114
 8                     Cn1cccc1C(=O)Nc1nccs1  activation (% of control)              %              111
 9        Cc1ccc(C2=NN(C)c3nc4ccccc4n3C2)cc1  activation (% of control)              %              112
10  O=C(Nc1cc(C(F)(F)F)ccc1Cl)c1cc(C2CC2)on1  activation (% of control)              %              100
11                CCNCc1cc2cc(C)ccc2[nH]c1=O  activation (% of control)              %              101
12  COc1ccccc1-c1nnc(SCC(=O)N2CC(C)CC(C)C2)o1 (configuration not stated)  activation (% of control)              %              101
13  Cn1nc(-c2ccc(Cl)cc2)c2cc(C(=O)NCc3ccco3)sc21  activation (% of control)              %              104
14  Cc1cccc(N(CC(=O)N=Nc2c(O)[nH]c3ccccc23)S(C)(=O)=O)c1C  activation (% of control)              %              103
15  CCOC(=O)N1CCN(CC(=O)Nc2cc(C)nn2-c2nc3ccccc3s2)CC1  activation (% of control)              %              106
16  N#Cc1ccccc1NC(=O)COc1c(Br)cc(Br)c2cccnc12  activation (% of control)              %              107
17  COc1cccc(NC(=S)C(C#N)=C2N(C)c3ccccc3N2C)c1  activation (% of control)              %             94.8
18  Cc1ccc(S(=O)(=O)Nc2nc3ccccc3nc2N2CCc3ccccc3C2)cc1  activation (% of control)              %              107
19  CCOc1ccc(C2c3[nH]c4ccccc4c3CCN2Cc2cn(CC)nc2C)cc1 (configuration not stated)  activation (% of control)              %              111
20  COCCCNc1nc2c(-c3cccc(C(F)(F)F)c3)nnn2c2ccccc12  activation (% of control)              %              109
21   COc1ccccc1-c1nnc(NC(=O)c2ccc3ncsc3c2)o1  activation (% of control)              %              127
22  Cc1ccc(N=Nc2c(C)[nH]n(-c3ccccc3)c2=O)cc1  activation (% of control)              %              106
23  COC(=O)c1[nH]c2cccc(C)c2c1NC(=O)CN1CCCc2ccccc21  activation (% of control)              %             96.7
24  C=CCCC(=O)Nc1nc(C)c(-c2csc(Nc3ccc(Cl)cc3)n2)s1  activation (% of control)              %              107
25  O=C(Cc1c[nH]c2ccccc12)OCCOC(=O)Cc1c[nH]c2ccccc12  activation (% of control)              %             99.2
26       O=C1CCCN1CCCNc1ncnc2c1[nH]c1ccccc12  activation (% of control)              %              100
27   O=C(O)CS/C(=C\c1ccc(F)cc1)c1nc2ccccc2s1  activation (% of control)              %              116
28       C/C(=N\c1nc2ccccc2n1C)c1cc(Cl)ccc1O  activation (% of control)              %             99.6
29  CCCCC(=O)Nc1nc(C)c(-c2csc(Nc3ccc(Cl)cc3)n2)s1  activation (% of control)              %              101
30  COc1ccccc1C1C2=C(COC2=O)Nc2cc3c(cc21)OCO3 (configuration not stated)  activation (% of control)              %              166
31  O=C(C1CCN(S(=O)(=O)Cc2ccccc2)CC1)N1CCCc2ccccc21  activation (% of control)              %              108
32  Cc1cccc(C(=O)N2CCc3c([nH]c4ccccc34)C2CC(C)C)n1 (configuration not stated)  activation (% of control)              %              110
33  Oc1cccc(C2c3[nH]c4ccccc4c3CCN2Cc2cnn(-c3ccccc3)c2)c1 (configuration not stated)  activation (% of control)              %              105
34  CCOC(=O)c1c(-c2cccc(C)c2)csc1NC(=O)c1c(-c2ccccc2)noc1C  activation (% of control)              %             71.3
35           COc1ccc(Cl)cc1NC(=O)c1oc(C)nc1C  activation (% of control)              %              108
36  COc1ccc(-c2c3c(=O)n(C)c(=O)n(C)c3cn2-c2cccc(OC)c2)cc1  activation (% of control)              %              103
37  CC(=O)Nc1ccc(NC(=O)COc2ccccc2C(=O)Nc2cccc(Cl)c2Cl)cc1  activation (% of control)              %              102
38  O=C(NCc1ccco1)c1cccn2c(=O)c3c4c(sc3nc12)CCCC4  activation (% of control)              %              106
39  O=[N+]([O-])c1ccc(N2CCN(S(=O)(=O)c3ccc4ccccc4c3)CC2)cc1NCc1ccco1  activation (% of control)              %              105
40  CCOC(=O)C1CCN(c2ncnc3c2oc2ccc(Br)cc23)CC1  activation (% of control)              %              102
41  COc1ccccc1N1CCN(C(=O)c2cc3c(-c4ccc(Cl)cc4)nn(C)c3s2)CC1  activation (% of control)              %              101
